System: Mus musculus
Protocol details: Anticonvulsant activity in albino mouse assessed as protection against maximal electroshock-induced seizures measuring mean convulsion threshold at 100 mg/kg, po after 60 mins
Type: functional
Recorded metric: Activity (mA)
Answers are plain numbers, in mA.

Line notation: COc1ccc(-n2c(S)nnc2CN2C(=O)NC(c3ccccc3)(c3ccccc3)C2=O)cc1
Obs value: 6.6

Line notation: CCn1c(S)nnc1CN1C(=O)NC(c2ccccc2)(c2ccccc2)C1=O
Obs value: 5.8

Line notation: COc1ccc(NC(=S)NNC(=O)CN2C(=O)NC(c3ccccc3)(c3ccccc3)C2=O)cc1
Obs value: 4

Line notation: Cc1ccc(Nc2nnc(CN3C(=O)NC(c4ccccc4)(c4ccccc4)C3=O)s2)cc1
Obs value: 5.2

Line notation: O=C(CN1C(=O)NC(c2ccccc2)(c2ccccc2)C1=O)NNC(=S)Nc1ccc(Cl)cc1
Obs value: 5.4

Could you report Activity for every entry in the following list?
1. COc1ccc(Nc2nnc(CN3C(=O)NC(c4ccccc4)(c4ccccc4)C3=O)s2)cc1
2. O=C1NC(c2ccccc2)(c2ccccc2)C(=O)N1Cc1nnc(Nc2ccccc2)s1

Solution:
4
5

Could you report Activity for every entry in the following list?
1. O=C1NC(c2ccccc2)(c2ccccc2)C(=O)N1Cc1nnc(Nc2ccc(Cl)cc2)s1
2. O=C1NC(c2ccccc2)(c2ccccc2)C(=O)N1Cc1nnc(S)n1-c1ccccc1

Solution:
4.25
6.6

###

What Activity was measured for each of the following?
Tested on: Mus musculus
Protocol details: Neurotoxicity in albino mouse assessed as neurological deficit at 100 mg/kg, ip measured after 1 hr for period of 300 seconds by rotarod test
Format: toxicity, organism-based
Design: dose 100 mg/kg, route intraperitoneal
Reported conditions: in vivo
Give bare numbers, in %.

Line notation: O=C1NC(c2ccccc2)(c2ccccc2)C(=O)N1Cc1nnc(S)o1
Obs value: 40

Could you report Activity for every entry in the following list?
1. O=C(CN1C(=O)NC(c2ccccc2)(c2ccccc2)C1=O)NNC(=S)Nc1ccccc1
2. COc1ccc(NC(=S)NNC(=O)CN2C(=O)NC(c3ccccc3)(c3ccccc3)C2=O)cc1
3. COc1ccc(-n2c(S)nnc2CN2C(=O)NC(c3ccccc3)(c3ccccc3)C2=O)cc1
4. O=C1NC(c2ccccc2)(c2ccccc2)C(=O)N1Cc1nnc(S)n1-c1ccccc1

Solution:
1: 0; 2: 16.67; 3: 50; 4: 33.33

###

Test system: Mus musculus
Protocol details: Anticonvulsant activity in albino mouse assessed as protection against maximal electroshock-induced seizures measuring mean convulsion threshold at 100 mg/kg, po after 60 mins
Assay type: functional
What Activity was measured for each of the following?
One number for each entry, in mA.

Example cases with answers are listed next.
Line notation: Cc1ccc(-n2c(S)nnc2CN2C(=O)NC(c3ccccc3)(c3ccccc3)C2=O)cc1
Assay system: Mus musculus
Recorded metric: Activity
Readout units: mA
Obs value: 6.6
--
Line notation: CCNc1nnc(CN2C(=O)NC(c3ccccc3)(c3ccccc3)C2=O)s1
Assay system: Mus musculus
Recorded metric: Activity
Readout units: mA
Obs value: 5
--
Line notation: Cc1ccc(NC(=S)NNC(=O)CN2C(=O)NC(c3ccccc3)(c3ccccc3)C2=O)cc1
Assay system: Mus musculus
Recorded metric: Activity
Readout units: mA
Obs value: 5.8
--
Line notation: O=C(CN1C(=O)NC(c2ccccc2)(c2ccccc2)C1=O)NNC(=S)Nc1ccccc1
Assay system: Mus musculus
Recorded metric: Activity
Readout units: mA
Obs value: 8.4

Exercise: Recall the recorded Activity for CCNC(=S)NNC(=O)CN1C(=O)NC(c2ccccc2)(c2ccccc2)C1=O with Mus musculus and state it.
Solution: 5.2

###

Test system: Mus musculus
Protocol details: Anticonvulsant activity in albino mouse assessed as protection against maximal electroshock-induced seizures measuring mean convulsion threshold at 100 mg/kg, po after 60 mins
Assay type: functional
Recorded metric: Activity (mA)
Answers are plain numbers, in mA.

Line notation: O=C1NC(c2ccccc2)(c2ccccc2)C(=O)N1Cc1nnc(S)o1
Activity (mA): 5.5

Could you report Activity for every entry in the following list?
1. O=C1NC(=O)C(c2ccccc2)(c2ccccc2)N1
2. O=C1NC(c2ccccc2)(c2ccccc2)C(=O)N1Cc1nnc(S)n1-c1ccc(Cl)cc1

Solution:
1. 7.25
2. 6.2
